This collection of values is drawn from paper PMC7615677.

# target_desc: CYP2D6 (Homo sapiens, UniProt P10635)
# Construct: incubation of isoform-specific substrates with human liver microsomes; from tissue; host or cells: human liver microsomes
# Sequence (P10635 whole entry, canonical isoform): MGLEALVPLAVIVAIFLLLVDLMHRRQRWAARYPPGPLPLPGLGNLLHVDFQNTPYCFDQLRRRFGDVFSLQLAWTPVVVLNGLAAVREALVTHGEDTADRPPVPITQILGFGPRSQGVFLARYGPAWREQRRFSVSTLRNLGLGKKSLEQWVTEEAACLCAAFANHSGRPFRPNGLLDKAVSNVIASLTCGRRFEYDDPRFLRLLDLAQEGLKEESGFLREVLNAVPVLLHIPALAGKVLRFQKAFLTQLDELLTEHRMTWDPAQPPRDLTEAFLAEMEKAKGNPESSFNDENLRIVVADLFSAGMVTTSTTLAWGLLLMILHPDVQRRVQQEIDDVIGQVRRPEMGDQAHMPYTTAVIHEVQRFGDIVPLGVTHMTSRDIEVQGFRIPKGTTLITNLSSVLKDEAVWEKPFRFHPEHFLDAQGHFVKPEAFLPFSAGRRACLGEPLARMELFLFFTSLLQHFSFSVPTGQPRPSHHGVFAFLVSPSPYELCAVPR
# protocol_summary: Cytochrome P450 inhibition, human liver microsomes
# Assay type: in vitro ADME
# condition_parameters: without NADPH preincubation; read-out: Time-dependent inhibition IC50
value_kind: pIC50
Bear in mind: pIC50 is minus log10 of a mol/L concentration; give just that figure.

State pIC50 on CYP2D6 (Homo sapiens, UniProt P10635). Entry: Cc1[nH]c2nc(N)nc(C)c2c1-c1ccc(C#N)c2c1OCO2 5.01

====

# protocol_summary: In vivo pharmacokinetics
# Design: species or system male beagle dogs
# condition_parameters: male, beagle, dog, plasma, iv, 1 mg/kg, Dog; read-out: Measured in vivo CLplasma
value_kind: clearance
Please report the result as a number followed by the unit.

Give reported clearance value for Cc1[nH]c2nc(N)nc(C)c2c1-c1ccc(C#N)c2c1OCO2 3.4 mL/min/kg

====

# Tested on: L. guyanensis
# protocol_summary: Leishmania intramacrophage in vitro assay
# Assay type: cell-based
# condition_parameters: L. guyanensis MHOM/PE/02/PER 054/0
value_kind: EC50
Please report the result as a number followed by the unit.

State EC50 on L. guyanensis. Entry: Cc1[nH]c2nc(N)nc(C)c2c1-c1ccc(C#N)c2c1OCO2 12 nM

====

# protocol_summary: In vivo pharmacokinetics
# Parameters: species or system male Sprague Dawley rats
# condition_parameters: male, Sprague Dawley, rat, plasma, iv, 3 mg/kg, Rat, intravenous 3.0 mg/kg, Monash University; read-out: Plasma CL
value_kind: clearance (mL/min/kg)
Respond with the bare value in mL/min/kg.

Give reported clearance value for Cc1[nH]c2nc(N)nc(C)c2c1-c1ccc(C#N)c2c1OCO2 [DNDI-6174] 2.12

====

# protocol_summary: Compartmental PK modelling and repeat-dose simulation
# Design: species or system hamsters
# condition_parameters: hamster, plasma, po, 12.5 mg/kg, Hamsters, fitted
value_kind: Cmax (ng/mL)
Respond with the bare value in ng/mL.

Give reported Cmax value for Cc1[nH]c2nc(N)nc(C)c2c1-c1ccc(C#N)c2c1OCO2 2850

====

# Test system: CYP3A4/5
# protocol_summary: Cytochrome P450 inhibition, human liver microsomes
# Format: in vitro ADME
# condition_parameters: probe midazolam (1'-hydroxylation), CYP3A4/5, midazolam, read-out: Direct inhibition IC50
value_kind: IC50

Give reported IC50 value for Cc1[nH]c2nc(N)nc(C)c2c1-c1ccc(C#N)c2c1OCO2 > 20 µM

====

# protocol_summary: In vivo pharmacokinetics
# Parameters: species or system male Sprague Dawley rats
# condition_parameters: male, Sprague Dawley, rat, plasma, iv, 3 mg/kg, Rat, intravenous 3.0 mg/kg, WuXi AppTec; read-out: Plasma Vss
value_kind: Vd (L/kg)
Respond with the bare value in L/kg.

Give reported Vd value for Cc1[nH]c2nc(N)nc(C)c2c1-c1ccc(C#N)c2c1OCO2 1.3

====

# protocol_summary: Compartmental PK modelling and repeat-dose simulation
# Design: species or system mice
# condition_parameters: mouse, plasma, po, 25 mg/kg, mice, 25 mg/kg qd, 5 days, simulated
value_kind: Cmax at 5 days (ng/mL)
Respond with the bare value in ng/mL.

Give reported Cmax at 5 days value for Cc1[nH]c2nc(N)nc(C)c2c1-c1ccc(C#N)c2c1OCO2 9030

====

# protocol_summary: In vivo pharmacokinetics
# Set-up: species or system female BALB/c mice
# condition_parameters: female, BALB/c, plasma; Mouse, oral 25 mg/kg; read-out: Plasma AUC0-∞
value_kind: AUC(0-inf) (ng·h/mL)
Respond with the bare value in ng·h/mL.

Give reported AUC(0-inf) value for Cc1[nH]c2nc(N)nc(C)c2c1-c1ccc(C#N)c2c1OCO2 75500

====

# protocol_summary: Compartmental PK modelling and repeat-dose simulation
# Design: species or system hamsters
# condition_parameters: hamster, plasma, po, 50 mg/kg, Hamsters, fitted
value_kind: Cmax (ng/mL)
Respond with the bare value in ng/mL.

Give reported Cmax value for Cc1[nH]c2nc(N)nc(C)c2c1-c1ccc(C#N)c2c1OCO2 15600

====

# protocol_summary: Seahorse mitochondrial stress test
# Type: cell-based
# condition_parameters: human, HepG2 cells; read-out: OCR Basal AC50
value_kind: AC50 at 45 min

Give reported AC50 at 45 min value for Cc1[nH]c2nc(N)nc(C)c2c1-c1ccc(C#N)c2c1OCO2 > 200 µM

====

# protocol_summary: Compartmental PK modelling and repeat-dose simulation
# Design: species or system hamsters
# condition_parameters: hamster, plasma, po, 25 mg/kg, hamsters, 25 mg/kg qd, 5 days, simulated; read-out: Cum AUC
value_kind: AUC (µg·h/mL)
Respond with the bare value in µg·h/mL.

Give reported AUC value for Cc1[nH]c2nc(N)nc(C)c2c1-c1ccc(C#N)c2c1OCO2 [DNDI-6174] 243

====

# protocol_summary: Compartmental PK modelling and repeat-dose simulation
# Design: species or system mice
# condition_parameters: mouse, plasma, po, 12.5 mg/kg, mice, 12.5 mg/kg bid, 5 days, simulated; read-out: Cum AUC
# Method: To support pharmacokinetic/pharmacodynamic (PKPD) analysis, data in mice and hamsters were also analyzed by compartmental modeling using Phoenix WinNonlin (version 8.2; Certara, Princeton, NJ). For each dose level, an extravascular dosing, single compartment disposition model was fit to the combined Day 1/Day 5 repeat dose plasma data. The model was parameterized with a single volume term (V/F), and with first order absorption (K01) and elimination (K10) rate constants. […]
value_kind: AUC at 5 days (µg·h/mL)
Respond with the bare value in µg·h/mL.

Give reported AUC at 5 days value for Cc1[nH]c2nc(N)nc(C)c2c1-c1ccc(C#N)c2c1OCO2 410

====

# protocol_summary: In vivo pharmacokinetics
# Set-up: species or system female golden Syrian hamsters
# condition_parameters: female, golden Syrian, hamster, plasma; hamsters, oral 25 mg/kg qd, 5 days; read-out: Cmax (Day 1)
# Description: Additional PK studies were also conducted by WuXi AppTec Co, Ltd (Shanghai, China) according to protocols reviewed and approved by DNDi. […] IV and oral formulations for rats, mice and hamsters were the same as described above. For dogs, the IV dose was administered in saline containing 2% DMSO and 3% Solutol HS-15 and the oral formulation was as described above. […]
value_kind: Cmax (ng/mL)
Respond with the bare value in ng/mL.

Give reported Cmax value for Cc1[nH]c2nc(N)nc(C)c2c1-c1ccc(C#N)c2c1OCO2 4560

====

# protocol_summary: In vivo pharmacokinetics
# Parameters: species or system female golden Syrian hamsters
# condition_parameters: female, golden Syrian, plasma; Hamster, oral 12.5 mg/kg; read-out: Cmax
value_kind: Cmax (ng/mL)
Respond with the bare value in ng/mL.

Give reported Cmax value for Cc1[nH]c2nc(N)nc(C)c2c1-c1ccc(C#N)c2c1OCO2 2870

====

# protocol_summary: Compartmental PK modelling and repeat-dose simulation
# Set-up: species or system hamsters
# condition_parameters: hamster, plasma, po, 12.5 mg/kg, hamsters, 12.5 mg/kg qd, 5 days, simulated
value_kind: Cmax (ng/mL)
Respond with the bare value in ng/mL.

Give reported Cmax value for Cc1[nH]c2nc(N)nc(C)c2c1-c1ccc(C#N)c2c1OCO2 2880

====

# Test system: CYP3A4/5
# protocol_summary: Cytochrome P450 inhibition, human liver microsomes
# Assay type: in vitro ADME
# condition_parameters: probe testosterone (6β-hydroxylation), CYP3A4/5, testosterone, read-out: Direct inhibition IC50
# Description: Direct CYP inhibition studies were conducted using conditions described previously ([43]) following incubation of isoform-specific substrates with human liver microsomes. The formation of known metabolites mediated by a specific CYP isoform was monitored. […] Concentrations of the isoform-specific metabolites were quantified by LC-MS (Waters Xevo TQD triple quadrupole MS coupled to a Waters Acquity UPLC system) relative to calibration standards prepared in pre-quenched microsomal matrix. […]
value_kind: IC50 (µM)
Respond with the bare value in µM.

Give reported IC50 value for Cc1[nH]c2nc(N)nc(C)c2c1-c1ccc(C#N)c2c1OCO2 [DNDI-6174] 12.3

====

# Test system: L. tropica
# protocol_summary: Leishmania intramacrophage in vitro assay
# Format: cell-based
# condition_parameters: L. tropica MHOM/AF/2015/HTD7
value_kind: EC50 (µM)
Respond with the bare value in µM.

Give reported EC50 value for Cc1[nH]c2nc(N)nc(C)c2c1-c1ccc(C#N)c2c1OCO2 0.36

====

# protocol_summary: In vitro metabolism, cryopreserved hepatocytes
# Format: in vitro ADME, dog
# condition_parameters: dog, cryopreserved hepatocytes
value_kind: hepatocyte CLint at 0.5 µM
Please report the result as a number followed by the unit.

Give reported hepatocyte CLint at 0.5 µM value for Cc1[nH]c2nc(N)nc(C)c2c1-c1ccc(C#N)c2c1OCO2 [DNDI-6174] 1 µL/min/1e6 cells

====

# protocol_summary: In vitro metabolism, liver microsomes
# Type: in vitro ADME
# condition_parameters: liver microsomes, pH 7.4; Rat; 2 independent experiments; read-out: In vitro Microsome CLint
value_kind: microsomal CLint at 0.5 µM (µL/min/mg)
Respond with the bare value in µL/min/mg.

Give reported microsomal CLint at 0.5 µM value for Cc1[nH]c2nc(N)nc(C)c2c1-c1ccc(C#N)c2c1OCO2 10
